Listed next: entries and their corresponding pKd.
Biological target: T1, mouse programmed cell death protein 1 Fc fusion protein (mPD-1-Fc), mPD-1 C60S (aa 25-167) (Mus musculus, UniProt Q02242, stabilised)
T1 construct: not cleaved; source: Expi293F, purified (Protein A, SEC; dimeric fraction); not shown: Fc (human), C-terminal, kept
Assay: SPR; Carterra LSA; Fab from the ammonium sulfate precipitate of the culture supernatant immobilised on a NiHC200M chip; hPD-1 (1-1024 nM) or mPD-1-Fc (4-1024 nM) as analyte, fourfold dilution series, no regeneration; HBS-EP pH 7.4, 25 °C; medians over the spots of a construct, KD = koff/kon
Details: one partner purified
Lab note: report pKd as minus log10 of the concentration in molar units, number only.

toripalimab Fab L.H98Y (Fab, V domains shown, as the heavy chain of Sm3; light chain of Sm3 with this change; numbers count from the chain's first residue; source: Brevibacillus, culture supernatant (ammonium sulfate precipitate); not shown: 6xHis, C-terminal, kept; 6xHN, C-terminal, kept) VH: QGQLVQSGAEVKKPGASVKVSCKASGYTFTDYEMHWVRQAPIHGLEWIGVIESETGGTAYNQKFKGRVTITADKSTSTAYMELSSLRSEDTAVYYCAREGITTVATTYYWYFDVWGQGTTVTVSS VL: DVVMTQSPLSLPVTLGQPASISCRSSQSIVHSNGNTYLEWYLQKPGQSPQLLIYKVSNRFSGVPDRFSGSGSGTDFTLKISRVEAEDVGVYYCFQGSYVPLTFGQGTKLEIK : 6.40
toripalimab Fab H.T58A (Fab, V domains shown, heavy chain of Sm3 with this change; numbers count from the chain's first residue; as the light chain of Sm3; source: Brevibacillus, culture supernatant (ammonium sulfate precipitate); not shown: 6xHis, C-terminal, kept; 6xHN, C-terminal, kept) VH: QGQLVQSGAEVKKPGASVKVSCKASGYTFTDYEMHWVRQAPIHGLEWIGVIESETGGAAYNQKFKGRVTITADKSTSTAYMELSSLRSEDTAVYYCAREGITTVATTYYWYFDVWGQGTTVTVSS VL: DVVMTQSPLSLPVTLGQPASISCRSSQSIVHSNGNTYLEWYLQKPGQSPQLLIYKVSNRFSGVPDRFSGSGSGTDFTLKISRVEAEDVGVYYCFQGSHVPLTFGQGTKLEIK : 6.77
toripalimab Fab H.W110Y (Fab, V domains shown, heavy chain of Sm3 with this change; numbers count from the chain's first residue; as the light chain of Sm3; source: Brevibacillus, culture supernatant (ammonium sulfate precipitate); not shown: 6xHis, C-terminal, kept; 6xHN, C-terminal, kept) VH: QGQLVQSGAEVKKPGASVKVSCKASGYTFTDYEMHWVRQAPIHGLEWIGVIESETGGTAYNQKFKGRVTITADKSTSTAYMELSSLRSEDTAVYYCAREGITTVATTYYYYFDVWGQGTTVTVSS VL: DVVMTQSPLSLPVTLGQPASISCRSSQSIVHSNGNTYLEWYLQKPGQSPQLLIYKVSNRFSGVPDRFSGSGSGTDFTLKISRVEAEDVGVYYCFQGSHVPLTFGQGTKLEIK : 6.78

Read the next record carefully.
Q: Find the measured pKd of toripalimab Fab L.P100M (Fab, V domains shown, as the heavy chain of Sm3; light chain of Sm3 with this change; numbers count from the chain's first residue; source: Brevibacillus, culture supernatant (ammonium sulfate precipitate); not shown: 6xHis, C-terminal, kept; 6xHN, C-terminal, kept) VH: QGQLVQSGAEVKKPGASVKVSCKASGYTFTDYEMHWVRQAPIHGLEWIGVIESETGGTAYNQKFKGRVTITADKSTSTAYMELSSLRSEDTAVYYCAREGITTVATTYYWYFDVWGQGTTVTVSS VL: DVVMTQSPLSLPVTLGQPASISCRSSQSIVHSNGNTYLEWYLQKPGQSPQLLIYKVSNRFSGVPDRFSGSGSGTDFTLKISRVEAEDVGVYYCFQGSHVMLTFGQGTKLEIK and report it.
A: 8.07
